- System: HCT-116
- experiment_description: Cytotoxicity against human HCT116 cells after 72 hrs by MTT assay
- Assay type: functional, cell-based
- recorded_conditions: HCT-116, 72 h
measured_endpoint: IC50 (µM)
Give the value in µM but do not write µM after it.

Inquiry: # input compound: O=C1c2cc(Cl)ccc2SC2c3[nH]c4ccccc4c3CCN12 (centres undefined) ; wanted: its IC50
Reply text: 29.1

Inquiry: // query: O=C1c2ccc(Cl)cc2OC2c3[nH]c4ccc(O)cc4c3CCN12 (centres undefined)
Reply text: 18.7

Inquiry: // query: COc1ccc2[nH]c3c(c2c1)CCN1C(=O)c2ccc(Cl)cc2OC31 (centres undefined)
Reply text: 8.7

Inquiry: // query: COc1ccc2[nH]c3c(c2c1)CCN1C(=O)c2cc(F)ccc2OC31 (centres undefined)
Reply text: 25.1

Inquiry: // query: CN1c2ccoc2C(=O)N2CCc3c([nH]c4ccccc34)C21 (centres undefined)
Reply text: 178

Inquiry: // query: O=C1c2ccc(F)cc2OC2c3[nH]c4ccccc4c3CCN12 (centres undefined)
Reply text: 6.7

Inquiry: // query: COc1ccc2c(c1)C(=O)N1CCc3c([nH]c4ccc(OC)cc34)C1O2 (centres undefined)
Reply text: 23.7

Inquiry: // query: Cc1ccc2c(c1)OC1c3[nH]c4ccccc4c3CCN1C2=O (centres undefined)
Reply text: 25.5

Inquiry: // query: O=C1c2cc(Cl)ccc2OC2c3[nH]c4ccccc4c3CCN12 (centres undefined)
Reply text: 1.4

---

- System: HCT-116
- experiment_description: Cytotoxicity against human HCT116 cells after 72 hrs by MTT assay
- Type: functional, cell-based
- recorded_conditions: HCT-116, 72 h
pIC50: −log10 of the molar value.
So I've got a bunch of molecules here, and I need their pIC50 values.

Inquiry: Report pIC50 for COc1ccc2[nH]c3c(c2c1)CCN1C(=O)c2ccccc2S(=O)(=O)C31 (stereo not given) tested on HCT-116.
Reply text: < 3.70

Inquiry: // query: O=C1c2cc(Cl)ccc2OC2c3[nH]c4ccc(O)cc4c3CCN12 (stereo not given)
Reply text: > 8.52

Inquiry: // query: Cc1ccc2c(c1)OC1c3[nH]c4ccc(O)cc4c3CCN1C2=O (stereo not given)
Reply text: > 8.52

Inquiry: // query: O=C1c2cc(Cl)ccc2SC2c3[nH]c4ccc(O)cc4c3CCN12 (stereo not given)
Reply text: > 8.52

Inquiry: // query: O=C1c2cc(F)ccc2SC2c3[nH]c4ccccc4c3CCN12 (stereo not given)
Reply text: < 3.70

Inquiry: // query: COc1ccc2[nH]c3c(c2c1)CCN1C(=O)c2ccccc2C31O (stereo not given)
Reply text: < 3.70

Inquiry: // query: COc1ccc2[nH]c3c(c2c1)CCCN1C(=O)c2ccccc2N(C)C31 (stereo not given)
Reply text: < 3.70

Inquiry: // query: O=C1c2ccccc2S(=O)(=O)C2c3[nH]c4ccccc4c3CCN12 (stereo not given)
Reply text: < 3.70

Inquiry: // query: O=C1c2cc(F)ccc2SC2c3[nH]c4ccc(O)cc4c3CCN12 (stereo not given)
Reply text: > 8.52

Inquiry: // query: CN1c2ccccc2C(=O)N2CCCc3c(oc4ccc(O)cc34)C21 (stereo not given)
Reply text: < 3.70
